Examples of molecules with documented inhibition at 1 µM follow.
# Target Under Test: BuChE (butyrylcholinesterase) (Homo sapiens, UniProt P06276)
# Sequence (P06276 whole entry): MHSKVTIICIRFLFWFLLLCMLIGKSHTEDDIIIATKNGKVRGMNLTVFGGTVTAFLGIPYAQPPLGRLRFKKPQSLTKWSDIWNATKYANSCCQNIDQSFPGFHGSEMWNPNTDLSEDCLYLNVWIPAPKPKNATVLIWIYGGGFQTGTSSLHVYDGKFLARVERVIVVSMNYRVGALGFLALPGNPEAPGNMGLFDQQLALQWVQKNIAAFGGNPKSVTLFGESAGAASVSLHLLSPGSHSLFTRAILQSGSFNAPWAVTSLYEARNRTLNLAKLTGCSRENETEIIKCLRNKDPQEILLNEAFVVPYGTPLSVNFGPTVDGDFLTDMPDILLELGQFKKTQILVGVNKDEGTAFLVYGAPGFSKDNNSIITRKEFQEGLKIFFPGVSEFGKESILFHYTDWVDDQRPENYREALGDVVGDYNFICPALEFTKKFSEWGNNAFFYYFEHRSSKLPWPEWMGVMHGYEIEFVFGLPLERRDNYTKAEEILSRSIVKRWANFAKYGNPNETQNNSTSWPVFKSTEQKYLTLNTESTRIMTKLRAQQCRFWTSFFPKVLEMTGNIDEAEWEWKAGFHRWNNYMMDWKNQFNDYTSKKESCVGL
# Protocol Notes: Inhibition of BuChE (unknown origin) at 1 uM relative to control
Note to self: number, then unit, no commentary.

* COc1ccc(-c2ccc(/C=N/N3CC(=O)N(CCC4CCN(Cc5ccccc5)CC4)C3=O)o2)cc1 | 4.6%
* COc1ccccc1-c1ccc(/C=N/N2CC(=O)N(CCC3CCN(Cc4ccccc4)CC3)C2=O)o1 | 1.6%

### Prompt Bench note: what inhibition at 1 µM did COc1cccc(-c2ccc(/C=N/N3CC(=O)N(CCC4CCN(Cc5ccccc5)CC4)C3=O)o2)c1 show?
### Response 3.8%

### Prompt Bench note: what inhibition at 1 µM did O=C1CN(/N=C/c2ccc(-c3ccccc3[N+](=O)[O-])o2)C(=O)N1CCC1CCN(Cc2ccccc2)CC1 show?
### Response 14.6%
